# experimental_details: BSK_BT_Bcell_Proliferation: Viability Assessment in the BioMAP Diversity Plus: BT Assay for B cell Proliferation (AID 2284227)
# condition: primary human B cells with PBMC
Calls of active or inactive are those of the source. The calls were made as follows: active = hit-call score of the fitted dose curve at least 0.9, where 1 is the maximum; inactive = score below 0.9.
Field 'call' accepts active, inactive

Incoming: Outcome logged for CC(c1cc(C(C)(C)C)cc(C(C)(C)C)c1O)c1cc(C(C)(C)C)cc(C(C)(C)C)c1O in this assay:
Outgoing: active

Incoming: GET /call?item= CC(Cl)COP(=O)(OCC(C)Cl)OCC(C)Cl (stereo not drawn) returns the recorded outcome of this test.
Outgoing: inactive

Incoming: Per the assay record, what outcome was assigned to CCCCCCCCC(CO)CCCCCC (stereo not drawn) ?
Outgoing: inactive

Incoming: What did the test return for CCCCCCCO ?
Outgoing: inactive

Incoming: Status in this test for C=C(C)C(=O)OCCCCCCCCCCCC ?
Outgoing: inactive

Incoming: I'd appreciate the recorded outcome for COc1ccc(C(=O)c2ccccc2)c(O)c1 from this test.
Outgoing: inactive

Incoming: Per the records of this test, what outcome belongs to CCCCCCC=O ?
Outgoing: inactive

Incoming: Field: outcome | Entry: O=C(Cl)c1c(Cl)c(Cl)c(C(=O)Cl)c(Cl)c1Cl
Outgoing: inactive

---

# assay_target: Aryl hydrocarbon receptor (Homo sapiens) (UniProt P35869)
# Sequence (P35869 whole entry, looked up): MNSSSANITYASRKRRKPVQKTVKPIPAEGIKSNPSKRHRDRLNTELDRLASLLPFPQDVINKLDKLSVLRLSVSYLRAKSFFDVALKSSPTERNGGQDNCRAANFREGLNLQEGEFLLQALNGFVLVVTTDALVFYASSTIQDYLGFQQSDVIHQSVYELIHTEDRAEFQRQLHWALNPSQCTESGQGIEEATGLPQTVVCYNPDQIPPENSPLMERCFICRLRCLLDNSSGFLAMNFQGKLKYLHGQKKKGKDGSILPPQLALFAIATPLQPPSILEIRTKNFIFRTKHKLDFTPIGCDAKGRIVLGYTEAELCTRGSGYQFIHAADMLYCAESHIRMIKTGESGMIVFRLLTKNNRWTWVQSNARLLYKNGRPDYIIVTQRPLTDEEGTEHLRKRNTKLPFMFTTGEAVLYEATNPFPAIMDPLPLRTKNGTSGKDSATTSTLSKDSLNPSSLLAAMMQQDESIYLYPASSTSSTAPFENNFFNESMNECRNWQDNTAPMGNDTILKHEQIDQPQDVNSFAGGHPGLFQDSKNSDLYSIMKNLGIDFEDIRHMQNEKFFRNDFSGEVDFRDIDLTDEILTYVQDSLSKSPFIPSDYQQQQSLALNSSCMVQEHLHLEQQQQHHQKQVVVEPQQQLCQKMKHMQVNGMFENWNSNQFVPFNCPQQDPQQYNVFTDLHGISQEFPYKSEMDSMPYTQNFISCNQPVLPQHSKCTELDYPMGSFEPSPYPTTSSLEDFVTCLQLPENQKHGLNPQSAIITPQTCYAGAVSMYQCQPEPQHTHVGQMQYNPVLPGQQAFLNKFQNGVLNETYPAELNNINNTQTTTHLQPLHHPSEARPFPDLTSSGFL
# experimental_details: ATG_Ahr_CIS: Attagene CIS-FACTORIAL HepG2 Assay for human Aryl Hydrocarbon Receptor (Ahr) (AID 2282930)
# condition: HepG2 AhR cis-factorial reporter transcription; actives raise or lower the signal
Activity calls are given as the source filed them. How the source made its calls: active means hit-call score of the fitted dose curve at least 0.9, where 1 is the maximum; inactive means score below 0.9.
metric: AC50

Example entries and their recorded answers appear below.
smiles_string | AC50
CCCc1ccc(O)c(OC)c1 | inactive
C=Cc1ccc(OC(C)=O)cc1 | inactive
CC(C)CC(=O)OCc1ccccc1 | inactive
O=C(Oc1ccccc1)c1ccccc1C(=O)Oc1ccccc1 | inactive
CC(C)(C)C1CCC(=O)CC1 | inactive

Incoming: Fill in reported AC50 for this entry: CC(C)CCCCCOC(=O)CS
Outgoing: inactive

Incoming: Kindly indicate its recorded AC50. Item: Cn1ccnc1
Outgoing: inactive

Incoming: Could you please provide reported AC50 for CCCC/C=C/C=C\C=O ? Thanks!
Outgoing: inactive

Incoming: Identify measured AC50 corresponding to Cc1ccc([N+](=O)[O-])cc1N
Outgoing: 1.51 µM (active)

Incoming: Please report AC50 for the following compound: CCCCCCCCCC[N+](C)(CCCCCCCCCC)CCC[Si](OC)(OC)OC
Outgoing: inactive

Incoming: Read off the recorded AC50 for [Cl][Eu]([Cl])[Cl]
Outgoing: inactive

Incoming: Given COC(Cc1ccccc1)OC , respond with its AC50.
Outgoing: inactive

Incoming: Name the recorded AC50 of the item C=CCCCCCCCCC=O in your answer.
Outgoing: inactive

Incoming: Item CC(C)c1ccc(O)c(C(C)C)c1 : provide AC50
Outgoing: inactive

Incoming: Tell us which AC50 value is on record for Cn1cccc1
Outgoing: inactive

Incoming: Specify AC50 for COc1ccc(-c2coc3cc(O)cc(O)c3c2=O)cc1 and stop.
Outgoing: 27 µM (active)

---

# assay_target: Nuclear receptor subfamily 1 group I member 2 (Homo sapiens) (UniProt O75469)
# Sequence (O75469 whole entry, looked up): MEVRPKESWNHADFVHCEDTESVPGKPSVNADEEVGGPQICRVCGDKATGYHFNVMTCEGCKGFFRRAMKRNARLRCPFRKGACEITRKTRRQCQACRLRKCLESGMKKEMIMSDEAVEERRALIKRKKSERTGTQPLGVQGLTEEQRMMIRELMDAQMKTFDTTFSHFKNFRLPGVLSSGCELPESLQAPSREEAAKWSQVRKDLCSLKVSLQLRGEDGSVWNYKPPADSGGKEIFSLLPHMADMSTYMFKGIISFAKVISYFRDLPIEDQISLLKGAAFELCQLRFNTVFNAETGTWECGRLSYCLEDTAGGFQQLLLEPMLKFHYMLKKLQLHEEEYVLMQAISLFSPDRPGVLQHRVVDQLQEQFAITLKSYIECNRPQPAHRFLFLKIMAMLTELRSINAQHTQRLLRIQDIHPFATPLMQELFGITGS
# experimental_details: ATG_PXR_TRANS: Attagene TRANS-FACTORIAL HepG2 Assay for human Pregnane X Receptor (PXR) (AID 2283008)
Inconclusive results are not listed. Calls of active or inactive are those of the source. The calls were made as follows: active = hit-call score of the fitted dose curve at least 0.9, where 1 is the maximum; inconclusive = response in the unintended direction; inactive = score below 0.9.
metric: AC50

Consider the worked cases shown below.
molecule | test_value
Cc1ccc2c(c1)CCCN2 | inactive
C=CCNCC=C | inactive
CC/C=C\C/C=C\C/C=C\CCCCCCCC(=O)OC | 31.3 µM (active)
CCCCCCOC(=O)CCCCC(=O)OCCCCCC | inactive
c1ccc(-c2nc3ccccc3[nH]2)cc1 | 23.4 µM (active)

Incoming: Respond only with AC50 recorded for CCOC(=O)[C@H](O)[C@@H](O)C(=O)OCC
Outgoing: 68.2 µM (active)

Incoming: Look up and report measured AC50 for this entry: CC(c1cc(C(C)(C)C)cc(C(C)(C)C)c1O)c1cc(C(C)(C)C)cc(C(C)(C)C)c1O
Outgoing: 0.0816 µM (active)

Incoming: Find the measured AC50 of CCC(C)C(=O)OCCc1ccccc1 (configuration not stated) and report it.
Outgoing: inactive

Incoming: # return recorded AC50 for input CCN1CCCC1=O
Outgoing: inactive

Incoming: Give the measured AC50 for CN(C)Cc1cc(CN(C)C)c(O)c(CN(C)C)c1
Outgoing: inactive

Incoming: Supply measured AC50 of C=CC(=O)OCCCCCCOC(=O)C=C in your reply.
Outgoing: 26.5 µM (active)

Incoming: Report measured AC50; entry is C=C[Si](OCCOC)(OCCOC)OCCOC
Outgoing: inactive

Entry source: PubChem BioAssay (EPA / NIEHS)
